Below, each entry is listed alongside its reported MIC90.
- System: Linezolid and Vancomycin Resistant Enterococcus faecium (strain 11)
- ASSAY: In vitro antibacterial activity, broth microdilution MIC90
- Format: cell-based
- ASSAY CONTEXT: Enterococcus faecium
READOUT LABEL: MIC90 (µg/mL)

In [3]: df
Out[3]:
                                   compound  readout_label  measured_number
0  O=C(CO)N1CCN(c2ccc(-c3ccc(N4C[C@H](Cn5ccnn5)OC4=O)cc3F)cn2)C=N1 [Compound 32]          MIC90                2
1  O=C1O[C@@H](Cn2ccnn2)CN1c1ccc(-c2ccc(N3C=NNCC3)nc2)c(F)c1 [Compound 30]          MIC90                2
2  NC(=O)N1CCN(c2ccc(-c3ccc(N4C[C@H](Cn5ccnn5)OC4=O)cc3F)cn2)C=N1 [Compound 33]          MIC90                2
3  CN1CCN(c2ccc(-c3ccc(N4C[C@H](Cn5ccnn5)OC4=O)cc3F)cn2)C=N1 [Compound 31]          MIC90                2
4  CCOC(=O)CN1CCN(c2ccc(-c3ccc(N4C[C@H](CNC(C)=O)OC4=O)cc3F)cn2)C=N1 [Compound 5]          MIC90                2
5  CCN1CCN(c2ccc(-c3ccc(N4C[C@H](CNC(C)=O)OC4=O)cc3F)cn2)C=N1 [Compound 4]          MIC90                2
6  CC(=O)NC[C@H]1CN(c2ccc(-c3ccc(N4C=NNCC4)nc3)c(F)c2)C(=O)O1 [Compound 2]          MIC90                2
7  CNC(=O)N1CCN(c2ccc(-c3ccc(N4C[C@H](CNC(C)=O)OC4=O)cc3F)cn2)C=N1 [Compound 16]          MIC90                2
8  CC(=O)NC[C@H]1CN(c2ccc(-c3ccc(N4C=NN(C(N)=O)CC4)nc3)c(F)c2)C(=O)O1 [Compound 17]          MIC90                2
